Hello, the source for this data is paper PMC11085448, in case you need it.

target-entity: human δ-opioid receptor (OPRD1) (Homo sapiens)
Sequence (P41143 whole entry): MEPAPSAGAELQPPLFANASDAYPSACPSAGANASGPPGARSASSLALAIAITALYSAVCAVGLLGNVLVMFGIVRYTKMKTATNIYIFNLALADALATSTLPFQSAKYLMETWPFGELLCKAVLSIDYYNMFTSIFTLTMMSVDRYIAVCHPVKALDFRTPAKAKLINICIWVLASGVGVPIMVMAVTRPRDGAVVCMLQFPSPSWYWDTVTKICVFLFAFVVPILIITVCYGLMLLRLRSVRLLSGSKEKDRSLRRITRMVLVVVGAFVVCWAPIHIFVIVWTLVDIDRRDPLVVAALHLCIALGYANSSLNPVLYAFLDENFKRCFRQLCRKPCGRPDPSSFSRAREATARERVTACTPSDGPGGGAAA
procedure-text: forskolin-induced cAMP accumulation assay, DOR antagonist
Assay type: cell-based
Parameters: host or cells: cAMP Hunter CHO-K1 (Chinese hamster ovary) cells
endpoint: pIC50
Field pIC50 (float): negative decimal logarithm of the concentration in molar.

Consider the worked cases shown below.
>>> readout_value("ON=C1[C@H]2CCC[C@]1(c1cccc(O)c1)CCN2CCc1ccccc1 [1R,5R-17]")
5.97
>>> readout_value("CNC[C@H]1[C@H]2CCC[C@]1(c1cccc(O)c1)CCN2CCc1ccccc1 [1R,5S,9S-53]")
5.79

API: the following record is the query input.
**Query** Bench note: what pIC50 did N#CC[C@H]1[C@H]2CCC[C@]1(c1cccc(O)c1)CCN2CCc1ccccc1 [1R,5S,9R-35] show?
**Result** 7.02

---

target-entity: human κ-opioid receptor (OPRK1) (Homo sapiens)
Sequence (P41145 whole entry): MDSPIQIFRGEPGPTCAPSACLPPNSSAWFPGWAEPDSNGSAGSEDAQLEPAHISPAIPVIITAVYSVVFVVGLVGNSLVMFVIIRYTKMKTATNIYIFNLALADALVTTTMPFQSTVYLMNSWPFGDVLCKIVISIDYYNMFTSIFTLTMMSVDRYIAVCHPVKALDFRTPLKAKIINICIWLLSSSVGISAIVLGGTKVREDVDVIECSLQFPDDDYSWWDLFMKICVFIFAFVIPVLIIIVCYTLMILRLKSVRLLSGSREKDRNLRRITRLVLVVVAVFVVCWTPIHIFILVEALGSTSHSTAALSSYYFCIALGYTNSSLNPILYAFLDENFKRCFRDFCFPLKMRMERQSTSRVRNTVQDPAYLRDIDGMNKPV
procedure-text: forskolin-induced cAMP accumulation assay, KOR agonist
particulars: CHO-K1, read-out: KOR Agonist %Emax ± SEM, CHO-K1 cells expressing human KOR; normalized to the forskolin control
Measured Emax accompanies every entry in the list below.
Just the number please, in %, no unit attached.

**Query** Need Emax, item ON=C1[C@H]2CCC[C@]1(c1cccc(O)c1)CCN2CCc1ccccc1
**Result** 21.2

**Query** Data request, read-out Emax, for CNC[C@@H]1[C@H]2CCC[C@]1(c1cccc(O)c1)CCN2CCc1ccccc1
**Result** 57

**Query** Need Emax, item CNC[C@@H]1[C@@H]2CCC[C@@]1(c1cccc(O)c1)CCN2CCc1ccccc1
**Result** 93.4

---

Collected pEC50 values appear next to each entry.
target-entity: human μ-opioid receptor (OPRM1) (Homo sapiens)
Sequence (P35372 whole entry): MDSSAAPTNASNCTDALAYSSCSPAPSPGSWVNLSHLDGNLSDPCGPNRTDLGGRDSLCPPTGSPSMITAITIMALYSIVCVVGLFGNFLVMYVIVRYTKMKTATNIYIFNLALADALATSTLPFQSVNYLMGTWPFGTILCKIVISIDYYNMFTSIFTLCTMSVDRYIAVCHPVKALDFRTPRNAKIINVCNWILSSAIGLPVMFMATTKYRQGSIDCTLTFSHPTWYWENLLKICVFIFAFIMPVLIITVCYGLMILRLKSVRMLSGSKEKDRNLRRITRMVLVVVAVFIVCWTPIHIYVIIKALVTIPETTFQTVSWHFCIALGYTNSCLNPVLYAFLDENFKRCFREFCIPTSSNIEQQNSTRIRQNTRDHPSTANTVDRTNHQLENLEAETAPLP
procedure-text: cell-based
particulars: MOR Agonist EC50 ± SEM
Quick note: pEC50 values are minus log10 of concentrations in mol/L.

>>> readout_value("N#CC=C1[C@H]2CCC[C@]1(c1cccc(O)c1)CCN2CCc1ccccc1 [1R,5R-33]")
8.74
>>> readout_value("ON=C1[C@@H]2CCC[C@@]1(c1cccc(O)c1)CCN2CCc1ccccc1 [1S,5S-15]")
6.64
>>> readout_value("N#CC[C@H]1[C@H]2CCC[C@]1(c1cccc(O)c1)CCN2CCc1ccccc1 [1R,5S,9R-35]")
9.07
>>> readout_value("N[C@@H]1[C@H]2CCC[C@]1(c1cccc(O)c1)CCN2CCc1ccccc1 [1R,5R,9S-6]")
7.62

Now take the following compound into account.
**Query** I am curious: what pEC50 value has been reported for N#CC[C@H]1[C@@H]2CCC[C@@]1(c1cccc(O)c1)CCN2CCc1ccccc1 [1S,5R,9R-38] ?
**Result** 8.60

---

target-entity: human κ-opioid receptor (OPRK1) (Homo sapiens)
procedure-text: forskolin-induced cAMP accumulation assay, KOR antagonist
pIC50: −log10 of the molar value.
endpoint: pIC50

Below, each entry is followed by its recorded pIC50 result.
>>> readout_value("CNC[C@H]1[C@H]2CCC[C@]1(c1cccc(O)c1)CCN2CCc1ccccc1")
"< 5.00"
>>> readout_value("N#CC[C@H]1[C@@H]2CCC[C@@]1(c1cccc(O)c1)CCN2CCc1ccccc1")
7.36
>>> readout_value("N#CC[C@H]1[C@H]2CCC[C@]1(c1cccc(O)c1)CCN2CCc1ccccc1")
"< 5.00"
>>> readout_value("ON=C1[C@H]2CCC[C@]1(c1cccc(O)c1)CCN2CCc1ccccc1")
"< 5.00"
>>> readout_value("N#CC=C1[C@@H]2CCC[C@@]1(c1cccc(O)c1)CCN2CCc1ccccc1")
"< 5.00"

**Query** Request body: readout pIC50, system human κ-opioid receptor (OPRK1) (Homo sapiens), query N#CC[C@@H]1[C@@H]2CCC[C@@]1(c1cccc(O)c1)CCN2CCc1ccccc1 . Return the value.
**Result** < 5.00

**Query** What value of pIC50 on human κ-opioid receptor (OPRK1) (Homo sapiens) does N[C@H]1[C@H]2CCC[C@]1(c1cccc(O)c1)CCN2CCc1ccccc1 have?
**Result** < 5.00

**Query** What value of pIC50 on human κ-opioid receptor (OPRK1) (Homo sapiens) does N[C@@H]1[C@H]2CCC[C@]1(c1cccc(O)c1)CCN2CCc1ccccc1 have?
**Result** < 5.00
